systemName: T1, NaV1.7 (Homo sapiens, UniProt Q15858)
T1 construct: expressed in transfected cells; host or cells: HEK293
T1 sequence (Q15858 whole entry): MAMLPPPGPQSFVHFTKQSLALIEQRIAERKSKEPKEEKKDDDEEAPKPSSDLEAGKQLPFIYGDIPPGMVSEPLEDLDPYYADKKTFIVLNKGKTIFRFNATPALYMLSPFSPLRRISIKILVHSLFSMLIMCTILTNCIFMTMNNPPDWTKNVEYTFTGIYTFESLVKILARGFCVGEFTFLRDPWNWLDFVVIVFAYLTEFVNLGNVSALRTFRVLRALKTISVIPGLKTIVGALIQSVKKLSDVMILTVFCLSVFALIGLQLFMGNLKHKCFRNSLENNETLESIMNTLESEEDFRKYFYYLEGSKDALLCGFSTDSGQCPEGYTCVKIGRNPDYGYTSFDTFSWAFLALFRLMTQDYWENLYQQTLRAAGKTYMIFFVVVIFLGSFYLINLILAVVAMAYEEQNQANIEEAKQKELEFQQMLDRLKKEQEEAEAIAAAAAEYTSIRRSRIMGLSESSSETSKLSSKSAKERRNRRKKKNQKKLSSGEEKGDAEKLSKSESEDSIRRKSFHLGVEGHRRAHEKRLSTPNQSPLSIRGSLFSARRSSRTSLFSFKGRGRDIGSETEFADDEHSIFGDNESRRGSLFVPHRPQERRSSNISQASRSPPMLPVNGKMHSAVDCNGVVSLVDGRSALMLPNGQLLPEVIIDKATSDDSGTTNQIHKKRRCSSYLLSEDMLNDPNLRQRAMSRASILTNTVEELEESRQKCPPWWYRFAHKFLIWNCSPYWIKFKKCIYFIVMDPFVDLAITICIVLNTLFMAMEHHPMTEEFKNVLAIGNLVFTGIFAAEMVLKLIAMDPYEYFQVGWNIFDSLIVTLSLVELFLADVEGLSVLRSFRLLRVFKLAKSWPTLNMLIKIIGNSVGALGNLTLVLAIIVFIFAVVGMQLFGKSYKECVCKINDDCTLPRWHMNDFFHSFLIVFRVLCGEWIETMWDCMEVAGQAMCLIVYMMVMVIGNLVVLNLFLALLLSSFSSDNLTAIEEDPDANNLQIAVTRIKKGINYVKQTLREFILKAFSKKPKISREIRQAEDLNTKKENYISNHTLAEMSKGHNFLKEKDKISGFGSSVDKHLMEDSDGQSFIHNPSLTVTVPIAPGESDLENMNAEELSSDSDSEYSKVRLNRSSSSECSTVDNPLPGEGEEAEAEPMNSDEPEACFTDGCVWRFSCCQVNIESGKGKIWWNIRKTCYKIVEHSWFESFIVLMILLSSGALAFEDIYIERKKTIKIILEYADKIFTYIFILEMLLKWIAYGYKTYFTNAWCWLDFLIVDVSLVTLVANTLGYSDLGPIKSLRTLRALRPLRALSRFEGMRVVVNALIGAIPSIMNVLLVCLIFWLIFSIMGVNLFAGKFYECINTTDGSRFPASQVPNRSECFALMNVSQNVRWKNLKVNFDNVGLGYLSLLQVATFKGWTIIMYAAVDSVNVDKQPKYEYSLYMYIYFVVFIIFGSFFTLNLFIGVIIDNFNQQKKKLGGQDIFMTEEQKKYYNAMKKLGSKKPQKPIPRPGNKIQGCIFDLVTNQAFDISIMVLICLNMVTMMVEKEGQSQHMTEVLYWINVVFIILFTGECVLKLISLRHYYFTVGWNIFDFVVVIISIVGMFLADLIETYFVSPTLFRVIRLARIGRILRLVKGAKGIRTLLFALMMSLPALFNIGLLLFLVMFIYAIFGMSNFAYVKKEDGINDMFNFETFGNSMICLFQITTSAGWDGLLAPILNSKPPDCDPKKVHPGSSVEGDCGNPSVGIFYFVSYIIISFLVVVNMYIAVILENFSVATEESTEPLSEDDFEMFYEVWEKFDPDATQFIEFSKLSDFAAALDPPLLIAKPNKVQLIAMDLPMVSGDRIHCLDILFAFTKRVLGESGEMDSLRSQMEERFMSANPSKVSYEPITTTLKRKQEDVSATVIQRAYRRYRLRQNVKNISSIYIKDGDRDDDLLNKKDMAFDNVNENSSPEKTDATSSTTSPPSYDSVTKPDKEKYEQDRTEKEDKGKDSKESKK
assayMethodText: Whole-cell patch clamp, HEK293-NaV1.7 cells
Format: cell-based
conditionDescription: non-competitive screening clones, 15 min incubation; read-out: IC50 ± SEM (nM) of Ab-PEG3-ASF in inhibiting NaV1.7

molecule	u	IC50
A4-PEG3-ASF: IgG1 Ab-UAA A4 conjugated with ASF-PEG3-DBCO (conjugate, non-natural residues, IgG1 Ab-UAA A4 conjugated with ASF-PEG3-DBCO) VH: EVQLVESGGGLVQPGGSLRLSCAASGFTFSGHWMHWVRQAPGKGLEWVSGISGSGGSTYYADSVKGRFTISADTSKNTAYLQMNSLRAEDTAVYYCARELTMATTTDAFDIWGQGTLVTVSS VL: DIQMTQSPSSLSASVGDRVTITCQASQDIRNDLNWYQQKPGKAPKSLIYAASRLQSGVPSRFSGSRSGTDFTLTISSLQPEDFATYYCQQXYTTPPTFGQGTKLEI	nM	1.22
